Record set: IC50 | PIK3CA (human) (UniProt P42336) | literature, multiple sources.

# molecule, IC50
rows = [
    ("Cn1ncc2c(Oc3ccc4[nH]ccc4c3)nc(-c3cccc(C#N)c3)nc21", "598 nM"),
    ("Cc1cccc2cc(Cn3nc(-c4ccc5oc(N)nc5c4)c4c(N)ncnc43)n(C3CC3)c(=O)c12", "< 100 nM"),
    ("c1cc2ccc(-c3nc4c(N5CCOCC5)nc(N5CCOCC5)nc4[nH]3)cc2[nH]1", "9050 nM"),
    ("CCCNc1ncc(-c2nc(N3CCOCC3)c3nc(-c4cccc(NS(=O)(=O)CCCF)c4F)ccc3n2)cn1", "100 to 1000 nM"),
    ("Nc1cc(C(F)(F)F)c(-c2nc(N3CCOCC3)c3nc(-c4cccc(NS(=O)(=O)CCCF)c4F)ccc3n2)cn1", "1 to 100 nM"),
    ("Cc1ccc(-c2ccc3ncc4nc(C)n(C5CCN(C(=O)[C@H](C)O)CC5)c4c3n2)cn1", "< 100 nM"),
    ("O=c1cc(Oc2cccc(-c3ccc(NCCN4CCCC4)cc3)c2)c2ccccc2[nH]1", "> 10000 nM"),
    ("CN(C)CCCNC(=O)Nc1ccc(-c2nc(N3CCOCC3)c3ccn(CCN(C)C)c3n2)cc1", "162 nM"),
    ("CN(C)Cc1nc2c(c(N3CCOc4ccc(-c5cccc(C(N)=O)c5)cc4C3)n1)CC(C)(C)CC2", "1000 to 2000 nM"),
    ("CN(C)CCNC(=O)c1ccc(-c2ccnc3c2c(/C=C2\\Oc4cccc(O)c4C2=O)cn3C)cc1", "179 nM"),
    ("COC(=O)Nc1nc2ccc(-c3ccc4c(c3)CN(C(=O)N3CCC(C)CC3)CCO4)cc2[nH]1", "200 to 500 nM"),
    ("CCC(Cn1cnc2ccc(-c3cnc(OC)c(NS(=O)(=O)c4ccc(F)cc4Cl)c3)cc2c1=O)C(=O)NC (single isomer, unassigned)", "18.1 nM"),
    ("CC(=O)Nc1nc2ccc(-c3nn(Cc4cc5cccc(C)c5c(=O)n4-c4ccccc4)c4ncnc(N)c34)cc2[nH]1", "> 10000 nM"),
    ("Cc1cccc2cc([C@H](C)Nc3ncnc4scnc34)n(-c3cccc(F)c3)c(=O)c12", "1000 to 10000 nM"),
    ("CC(C)Cn1c(N2C[C@H](C)NC[C@H]2C)nc2c(N3CCOCC3)nc(-c3cnc(N)nc3)nc21 (relative stereo)", "10 to 20 nM"),
    ("C[C@H](NC(=O)c1nc(-c2cncc(NS(C)(=O)=O)c2)cnc1N)c1cc2cccc(Cl)c2c(=O)n1C1CC1", "< 100 nM"),
    ("CS(=O)(=O)Nc1cccc(-c2cnc3[nH]cc(C(=O)c4cc(NS(=O)(=O)c5cccnc5)ccc4F)c3c2)c1", "≤ 10000 nM"),
    ("C[C@H](NC(=O)c1c(N)nn2cccnc12)c1cc2cccc(Cl)c2c(=O)n1CC(O)CO (stereo partly shown)", "1000 to 10000 nM"),
    ("FC(F)c1nc2ccccc2n1-c1cc(N2CCOCC2)nc(NCC2CCN(CC3CCOCC3)CC2)n1", "3900 nM"),
    ("C[C@H](Nc1ncnc2cccnc12)c1cc2ccccc2c(C(=O)N2CCOCC2)n1", "> 10000 nM"),
    ("CN(C)CCNC(=O)Nc1ccc(-c2nc(N3CCOCC3)c3ccn(CCN(C)C)c3n2)cc1", "78 nM"),
    ("CC(C)(C#N)c1ccc(-c2n[nH]c3cnc4ccc(-c5cncnc5)cc4c23)cc1", "< 10 nM"),
    ("C[C@H](Nc1ncnc2[nH]cnc12)c1cc2cccc(F)c2c(N2CCN(C)CC2)n1", "> 10000 nM"),
    ("Nc1cccc(-c2nc3c(N4CCOCC4)nc(N4CCOCC4)nc3[nH]2)c1", "3860 nM"),
    ("COc1ncc(-c2cc(OCCN3CCOCC3)c3nc(N)nc(C)c3c2)cc1NS(=O)(=O)c1ccc(F)cc1F", "4.1 nM"),
]
